Target: human mGlu2 receptor (Homo sapiens, UniProt Q14416)
Construct: expressed in transfected cells; host or cells: CHO cells
Sequence (Q14416 19-872): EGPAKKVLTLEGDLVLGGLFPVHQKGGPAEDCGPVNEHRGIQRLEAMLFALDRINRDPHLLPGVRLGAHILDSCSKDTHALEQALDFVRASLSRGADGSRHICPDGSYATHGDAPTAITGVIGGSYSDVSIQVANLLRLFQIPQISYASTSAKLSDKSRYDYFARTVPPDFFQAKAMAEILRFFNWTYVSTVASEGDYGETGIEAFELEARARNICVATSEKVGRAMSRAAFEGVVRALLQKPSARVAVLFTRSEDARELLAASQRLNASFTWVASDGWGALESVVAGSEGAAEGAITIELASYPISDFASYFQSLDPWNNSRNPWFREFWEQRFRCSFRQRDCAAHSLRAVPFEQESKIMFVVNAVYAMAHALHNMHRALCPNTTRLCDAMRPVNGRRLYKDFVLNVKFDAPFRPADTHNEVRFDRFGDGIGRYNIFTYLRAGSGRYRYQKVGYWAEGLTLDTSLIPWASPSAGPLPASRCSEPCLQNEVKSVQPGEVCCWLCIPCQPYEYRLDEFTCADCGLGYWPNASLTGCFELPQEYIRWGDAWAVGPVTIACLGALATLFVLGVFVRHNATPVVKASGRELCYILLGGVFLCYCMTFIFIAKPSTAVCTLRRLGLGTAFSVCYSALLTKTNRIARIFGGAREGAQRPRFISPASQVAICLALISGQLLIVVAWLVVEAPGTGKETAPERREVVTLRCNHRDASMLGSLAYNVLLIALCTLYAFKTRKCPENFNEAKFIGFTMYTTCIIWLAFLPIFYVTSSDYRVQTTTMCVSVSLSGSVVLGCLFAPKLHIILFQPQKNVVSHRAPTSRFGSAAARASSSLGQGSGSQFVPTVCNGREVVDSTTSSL
Test: [35S]GTPγS binding assay (mGluR2 negative allosteric modulation, glutamate ~EC80 60 μM)
Assay type: biochemical
Conditions: maximal % inhibition relative to the control glutamate response (EC80 glutamate); read-out: GTPγS-hmGluR2 anGT Emax
quantity: Emax (%)

| compound smiles | quantity unit | Emax |
| --- | --- | --- |
| C[C@H]1CN(c2ccc(C(F)(F)F)cc2)C(=O)c2c(NC(=O)c3cccc(S(N)(=O)=O)c3)cnn21 | % | 109 |
| Cc1cccc(C(=O)Nc2cnn3c2C(=O)N(c2ccc(C(F)(F)F)cc2)C[C@@H]3C)c1 | % | 106 |
| C[C@H]1CN(c2ccc(C(F)(F)F)cc2)C(=O)c2c(NC(=O)c3nccs3)cnn21 | % | 111 |
| C[C@H]1CN(c2ccc(C(F)(F)F)cc2)C(=O)c2c(NC(=O)CC3CC3)cnn21 | % | 98 |
| C[C@H]1CN(c2ccc(C(F)(F)F)c(F)c2)C(=O)c2c(NC(=O)c3ccc(N)nc3)cnn21 | % | 109 |
| Cc1cc(C(=O)Nc2cnn3c2C(=O)N(c2ccc(C(F)(F)F)c(Cl)c2)C[C@@H]3C)cc(Cl)n1 | % | 109 |
| COc1cccc(C(=O)Nc2cnn3c2C(=O)N(c2ccc(C(F)(F)F)cc2)C[C@@H]3C)c1F | % | 110 |
| C[C@H]1CN(c2ccc(C(F)F)c(Cl)c2)C(=O)c2c(NC(=O)c3ccc(N)nc3)cnn21 | % | 114 |
| COc1ccc(C(=O)Nc2cnn3c2C(=O)N(c2ccc(C(F)(F)F)cc2)C[C@@H]3C)c(F)c1 | % | 115 |
| CC(=O)Nc1cnn2c1C(=O)N(c1ccc(C(F)(F)F)cc1)C[C@@H]2C | % | 101 |
| C[C@H]1CN(c2ccc(C(F)(F)F)c(F)c2)C(=O)c2c(NC(=O)c3cccnc3)cnn21 | % | 105 |
| COc1cc(F)cc(C(=O)Nc2cnn3c2C(=O)N(c2ccc(C(F)(F)F)cc2)C[C@@H]3C)c1 | % | 114 |
| C[C@H]1CN(c2ccc(C(F)(F)F)cc2)C(=O)c2c(NC(=O)c3ncc[nH]3)cnn21 | % | 111 |
| Cc1cc(C(=O)Nc2cnn3c2C(=O)N(c2ccc(C(F)(F)F)c(Cl)c2)C[C@@H]3C)cc(N)n1 | % | 106 |
| COc1cc(N2C[C@H](C)n3ncc(NC(=O)c4ccnc(C)c4)c3C2=O)ccc1C(F)(F)F | % | 107 |
| C[C@H]1CN(c2ccc(C(F)(F)F)cc2)C(=O)c2c(NC(=O)c3cnc(N)cn3)cnn21 | % | 106 |
| COc1cnc(C(=O)Nc2cnn3c2C(=O)N(c2ccc(C(F)(F)F)cc2)C[C@@H]3C)cn1 | % | 111 |
| COc1cncc(C(=O)Nc2cnn3c2C(=O)N(c2ccc(C(F)(F)F)c(F)c2)C[C@@H]3C)c1 | % | 106 |
| C[C@H]1CN(c2ccc(C(F)(F)F)c(Cl)c2)C(=O)c2c(NC(=O)c3ccc(N)nc3)cnn21 | % | 109 |
| Cc1cnc(N)c(C(=O)Nc2cnn3c2C(=O)N(c2ccc(C(F)(F)F)cc2)C[C@@H]3C)c1 | % | 112 |
| Cc1cc(N2C[C@H](C)n3ncc(NC(=O)c4ccccc4)c3C2=O)ccc1C(F)(F)F | % | 108 |
| C[C@H]1CN(c2ccc(C(F)(F)F)cc2)C(=O)c2c(NC(=O)c3cncn3C)cnn21 | % | 101 |
| Cc1cncc(C(=O)Nc2cnn3c2C(=O)N(c2ccc(C(F)(F)F)c(F)c2)C[C@@H]3C)c1 | % | 103 |
| Cc1cc(C(=O)Nc2cnn3c2C(=O)N(c2ccc(C(F)(F)F)cc2)C[C@@H]3C)cc(C)n1 | % | 110 |
| Cc1cc(N2C[C@H](C)n3ncc(NC(=O)c4ccccn4)c3C2=O)ccc1C(F)(F)F | % | 107 |
| COCc1cccc(C(=O)Nc2cnn3c2C(=O)N(c2ccc(C(F)(F)F)cc2)C[C@@H]3C)c1 | % | 113 |
| COCc1cc(N2C[C@H](C)n3ncc(NC(=O)c4ccc(N)nc4)c3C2=O)ccc1C(F)(F)F | % | 111 |
| C[C@H]1CN(c2ccc(C(F)(F)F)cc2)C(=O)c2c(NC(=O)C3CCOCC3)cnn21 | % | 106 |
| C[C@H]1CN(c2ccc(S(F)(F)(F)(F)F)cc2)C(=O)c2c(NC(=O)c3cccnc3)cnn21 | % | 108 |
| COc1cccc(F)c1C(=O)Nc1cnn2c1C(=O)N(c1ccc(C(F)(F)F)cc1)C[C@@H]2C | % | 109 |
| COc1cc(N2C[C@H](C)n3ncc(NC(=O)c4ccc(N)nc4)c3C2=O)ccc1C(F)(F)F | % | 109 |
